The measured values listed here are drawn from the supplement of paper PMC6555819.

Parameter PBM binding z-score: see the listing below.
# System: LXRa homodimer (NR concentration 270 nM)
# testSummary: PBM binding z-score (relative to random genomic background probes); higher = stronger binding; sequences stand for … in GC…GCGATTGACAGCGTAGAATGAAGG
# print the numeric value only

AGAGTGAGGTTACCAAAGATCAGGGAAACGCTTG | 0.104

Could you please provide reported PBM binding z-score for CGTCCAAGGTCAATGTTAGGTCAGTGAAAGCATT ? Thanks!
2.85

Could you please provide reported PBM binding z-score for CAAGCTAGGTCAAGAGGTCAAAGTCCGCTTCCCG ? Thanks!
6.45

Could you please provide reported PBM binding z-score for CCTTACAGGTCAAGGTTATAGCACGGGTGGTACG ? Thanks!
2.02

Could you please provide reported PBM binding z-score for CAAACTAGGTCAAAGGTCAAGGTCGAGCCAACCA ? Thanks!
5.12

Could you please provide reported PBM binding z-score for CTCGAAAGGTCGGTTGAGGTCAGTATACGGATAA ? Thanks!
1.74

Could you please provide reported PBM binding z-score for ATCTCTAGGTAAAGGTCAGTGAAAGATCGATAGA ? Thanks!
1.74

Could you please provide reported PBM binding z-score for GCTGCAAGGTCAACTGATGGTCAGCTAAAGCTCG ? Thanks!
0.917

Could you please provide reported PBM binding z-score for TGGCCTAGGTCATGGGCCAGTATACCACGCGAAC ? Thanks!
-0.382

Could you please provide reported PBM binding z-score for CGAACTAGGTTACCAGGACAGTGAAGAGGTTGGA ? Thanks!
-0.296

Could you please provide reported PBM binding z-score for TCTAGGAGGACACGAAGGTCAGAGCTTTCCAGAG ? Thanks!
0.19

Could you please provide reported PBM binding z-score for TAGCCTAGCTCATTCAGGGGCCAGTATAGAAAGC ? Thanks!
-1.16
